ASSAY COMMENT: growth suppression of beta-catenin knockout HCT116, pilot screen, human colon tumor cells (AID 823);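 note: 0% = wells killed by 20 µM Hyamine and 100% = untreated DMSO cell wells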
MEASUREMENT PARAMETERS: CellTiter-Glo, 60 h, at 10 µM, stronger effect = lower value
Records with an inconclusive call do not appear. Activity calls are given as the source filed them.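 Rule for the calls: active = cell viability at or below a set limit in both duplicate runs, the limit being the all-compound median minus 4 SD (cut at about 23% in these data, passing the limit was not always enough); inconclusive = no clear call, values can overlap the other calls; inactive = the rest.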
VALUE TYPE: viability

Some compounds with recorded viability:
# COMPOUND, viability
measured = [
    ("CCCC(NS(=O)(=O)c1ccc(OC)cc1)C(=O)O (stereo not drawn)", "90.1% (inactive)"),
    ("Cc1ccc(-c2nc(CS(=O)CC(=O)NCCC(C)C)c(C)o2)cc1 (stereo not drawn)", "92.2% (inactive)"),
]

Here is another compound to look at.
INPUT: Given the compound COc1ccc(-c2cc3ccccc3n2CC(O)CN2CCOCC2)cc1 (stereo not drawn) , what is its reported viability?
OUTPUT: 89.7% (inactive)

###

ASSAY COMMENT: OD615 S. cerevisiae growth inhibition, permissive medium, pilot counter-assay, permissive growth control for S. cerevisiae lifespan shortening project (AID 705)
MEASUREMENT PARAMETERS: OD615, 24 h, at 10 µM, stronger effect = higher value
Calls of active or inactive are those of the source.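 Rule for the calls: active = growth inhibition above 25% in both replicates, a cutoff set 3 SD above the mean; inconclusive = above 25% in only one replicate; inactive = the rest.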
In this section, each of the compounds is paired with its reported growth inhibition.

Some compounds with recorded growth inhibition:
# COMPOUND, growth inhibition
data = [
    ("CCOc1ccccc1N1CSC2=C(C#N)C(c3c(OC)ccc4ccccc34)CC(=O)N2C1 (centres undefined)", "4.14% (inactive)"),
    ("CCOC(=O)c1ccccc1NC(=O)CC1Nc2ccccc2NC1=O (centres undefined)", "-2.62% (inactive)"),
]

INPUT: Given the compound `O=C(Cn1cc2c(n1)CCCCC2)NC1CCCCCC1` , what is its reported growth inhibition?
OUTPUT: -9.25% (inactive)

INPUT: Queued: `CCCNc1nc2c(c(=O)[nH]c(=O)n2C)n1CCc1ccccc1`
OUTPUT: -3.82% (inactive)

###

In this section, each of the molecules is paired with its reported viability.
ASSAY COMMENT: reducers of endogenous Her2 protein level, primary screen, SKBR3 breast tumor cells, AlphaScreen, ATP viability (AID 461);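 note: percent of carrier control wells set as 100% viability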
MEASUREMENT PARAMETERS: 18-24 h, measured here: SKBR3 viability, ATP luminescence, at 10 µM
Kindly provide the numeric value in % only, without the unit symbol.

Some molecules with recorded viability:
# MOLECULE, viability [%]
rows = [
    ("COc1ccc(C(C)=O)c(OC(=O)c2ccc(OC)c(OC)c2)c1", 104),
    ("CC(=O)OCC(=O)[C@@]1(O)CC[C@H]2[C@@H]3CCC4=CC(=O)C=C[C@]4(C)[C@@]3(Cl)[C@@H](Cl)C[C@@]21C", 114),
    ("CN1C(=O)CC(C(=O)Nc2ccc(F)cc2)SC1=Nc1ccc2c(c1)OCO2 (stereo not drawn)", 88),
    ("COc1ccccc1N1CCN(C(=O)c2c(-c3c(Cl)cccc3Cl)noc2C)CC1", 104),
    ("COC(=O)C(C)Sc1nc2c(c(=O)n(C)c(=O)n2C)n1Cc1cccc(C)c1 (stereo not drawn)", 97.5),
]

INPUT: Given the molecule `CC(=O)Oc1cc(C(C)C)c(OCCN(C)C)cc1C` , what is its reported viability?
OUTPUT: 96.5

INPUT: Queued: `O=C(c1cccs1)N1CCN=C1SCc1ccccc1`
OUTPUT: 120

INPUT: Queued: `COc1ccccc1-c1nc(C#N)c(N2CCN(c3ccccc3)CC2)o1`
OUTPUT: 104

###

In this section, each of the molecules is paired with its reported viability.
ASSAY COMMENT: growth inhibitors of H69AR lung tumor, primary screen, human, duplicate replicates (AID 580);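 note: 100% = mean luminescence of untreated wells and 0% = no signal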
MEASUREMENT PARAMETERS: H69AR lung tumor cells viability, ATP luminescence, 72 h; at 10 µM; stronger effect = lower value
Kindly provide the numeric value in % only, without the unit symbol.

# MOLECULE, viability, %
data = [
    ("CCC(C)(C)n1nnnc1C(c1cc2cc(OC)ccc2[nH]c1=O)N1CCc2ccccc21 (centres undefined)", 68),
    ("OC(CNCC1COc2ccccc2O1)COCc1cccs1 (centres undefined)", 83.1),
    ("COc1ccc(C)cc1S(=O)(=O)N1CCN(Cc2ccccc2)CC1", 91.2),
]

INPUT: Given the molecule Cc1ccc(-c2[nH]nc3c2C(c2ccc(OC(=O)N4CCOCC4)cc2)C(C#N)=C(N)O3)cc1 (centres undefined) , what is its reported viability?
OUTPUT: 85.5

INPUT: Queued: `CC1(C)OC(=O)C(=CNc2ccccc2)C(=O)O1`
OUTPUT: 108

INPUT: Queued: CN(C)CCN1C(=O)c2oc3ccc(Cl)cc3c(=O)c2C1c1cccc(Br)c1 (centres undefined)
OUTPUT: 77.1

INPUT: Queued: `Nc1ccc2[nH]ncc2c1`
OUTPUT: 100

INPUT: Queued: `CCc1ccc(CN(C)CCc2ccccn2)cc1`
OUTPUT: 102

INPUT: Queued: `O=C(O)c1cc2c(s1)CCCC2`
OUTPUT: 89.9

###

ASSAY COMMENT: HUVEC growth inhibition – cell-based, human, primary screen (AID 575);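 note: 100% = median of untreated cell wells with 0.1% DMSO on each plate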
MEASUREMENT PARAMETERS: HUVEC proliferation, CellTiter-Glo luminescence, 72 h; at 10 µM; stronger effect = lower value
VALUE TYPE: viability (%)
Kindly provide the numeric value in % only, without the unit symbol.

# COMPOUND, VALUE TYPE, VALUE MEASURED
data = [
    ("CCCOC(=O)CSc1nc(N)c(C#N)c(CC)c1C#N", "viability", 105),
    ("Cc1cccc(C)c1NC(=O)N1CCN(C2CCCCC2)CC1", "viability", 109),
    ("CCC1CCCCN1C(=O)Cn1c(C(=O)OC)cc2sc(Cl)cc21 (stereo not given)", "viability", 89.2),
    ("CC12CN3CC(C)(CN(C1)C3c1ccc(Br)cc1)C2 (stereo not given)", "viability", 99.2),
]

Here is another compound to look at.
INPUT: Given the compound `c1ccc(-c2noc(C3CCCCC3)n2)nc1` , what is its reported viability?
OUTPUT: 114

###

ASSAY COMMENT: 384-well plate pilot, post-Golgi transport modulator project, inhibition of yeast transport mutant growth (AID 636)
MEASUREMENT PARAMETERS: absorbance 615 nm, about 18 h, stronger effect = higher value
In this section, each of the compounds is paired with its reported inhibition.
Kindly provide the numeric value in % only, without the unit symbol.

Some compounds with recorded inhibition:
# COMPOUND, VALUE TYPE, VALUE MEASURED
records = [
    ("O=C(Nc1nc(-c2ccccc2)cs1)C1CCCCN1S(=O)(=O)c1ccccc1 (stereo not drawn)", "inhibition", -0.13),
    ("COc1ccc(C(=O)NCc2nnc(SCC(=O)Nc3cc(C)cc(C)c3)o2)cc1OC", "inhibition", 0.13),
    ("COCCn1c(SCC(=O)Nc2sc(C)c(C)c2C#N)nnc1C(C)C", "inhibition", -0.13),
]

INPUT: Given the compound `O=C(CSc1nccn1-c1cccc(Cl)c1)NC1CCCC1` , what is its reported inhibition?
OUTPUT: 0.91

INPUT: Queued: O=C(Cn1ncc2c(=O)oc3ccccc3c21)NCC1CCCO1 (stereo not drawn)
OUTPUT: -3.59

###

ASSAY COMMENT: reducers of endogenous Her2 protein level, primary screen, SKBR3 breast tumor cells, AlphaScreen, ATP viability (AID 461);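 note: percent of carrier control wells set as 100% viability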
MEASUREMENT PARAMETERS: 18-24 h, measured here: SKBR3 viability, ATP luminescence, at 10 µM
VALUE TYPE: viability (%)
Kindly provide the numeric value in % only, without the unit symbol.

Some compounds with recorded viability:
# COMPOUND, OUTPUT UNIT, VALUE MEASURED
data = [
    ("O=C(CN1CCN(c2cccc(Cl)c2)CC1)N1CCCC1", "%", 105),
    ("COC(=O)CCc1c(C)c(C#N)c2nc3ccccc3n2c1N1CCCC1", "%", 100),
    ("Cc1cc(C)n2cc(CSCc3ccco3)nc2n1", "%", 97),
    ("CC1(C)O[C@@H]2C[C@H]3[C@@H]4CCC5=CC(=O)C=C[C@]5(C)[C@@]4(F)[C@@H](O)C[C@]3(C)[C@]2(C(=O)CO)O1", "%", 90.5),
    ("CN(Cc1ccccc1)C(=O)CNC(=O)Cn1cnc2ccccc2c1=O", "%", 100),
    ("Nc1nc2ccccc2n1C(=O)CCc1ccccc1", "%", 102),
    ("Cc1cc(NC(=O)Cc2cn3ccsc3n2)n(-c2ccccc2)n1", "%", 91),
    ("CCOC(=O)N1CCN(c2cc3nccnc3cc2F)CC1", "%", 114),
    ("CCOC(=O)c1ccc(NC(=O)CCc2nc(-c3cccc(C)c3)no2)cc1", "%", 114),
    ("CC(=O)NC1(c2nnnn2CCOC(=O)Nc2ccc(Cl)cc2)CCCCC1", "%", 112),
]

INPUT: Given the compound `COCCn1c(SCc2csc(-c3ccccc3)n2)nc2ccccc21` , what is its reported viability?
OUTPUT: 94

INPUT: Queued: `CCN1CCN(c2cc3c(cc2F)c(=O)c(C(=O)O)cn3C2CC2)CC1`
OUTPUT: 103

INPUT: Queued: `CC(=O)N[C@@H](CS)C(=O)O`
OUTPUT: 105

INPUT: Queued: CCOC(=O)c1ccc(N2C(=O)CC(N3CCN(C/C=C/c4ccccc4)CC3)C2=O)cc1 (stereo not drawn)
OUTPUT: 84

INPUT: Queued: `COc1ccc(OC)c(NC(=O)CCN2CCN(c3ccccc3F)CC2)c1`
OUTPUT: 94.5

INPUT: Queued: `C[C@]12CC[C@H]3[C@@H](CCC4=CC(=O)CC[C@@]43C)[C@@H]1CC[C@@H]2C(=O)CO`
OUTPUT: 106

INPUT: Queued: `Cc1ccc(-c2cc(C(=O)Nc3cc(C)ccc3C)[nH]n2)c(O)c1`
OUTPUT: 102
